The measured values listed here are drawn from BindingDB's records for doi:10.1111/cbdd.12141.

Recorded IC50 values (Xanthine dehydrogenase/oxidase (Bos taurus, UniProt P80457)) are given below.
ENDPOINT: IC50 (µM)

Example entries begin here.
>>> quantitative_result("c1cncc(Cn2c(-c3cccnc3)nc3ccccc32)c1")
7.1
>>> quantitative_result("Clc1ccc(Cn2c(-c3ccc(Cl)cc3)nc3ccccc32)cc1")
6.3
>>> quantitative_result("Oc1ccccc1Cn1c(-c2ccccc2O)nc2ccccc21")
8.7
>>> quantitative_result("COc1ccc(Cn2c(-c3ccc(OC)cc3)nc3ccccc32)cc1")
8.5

(1) Clc1cccc(Cn2c(-c3cccc(Cl)c3)nc3ccccc32)c1
(2) Oc1ccc(Cn2c(-c3ccc(O)cc3)nc3ccccc32)cc1
Query string: Identify the entry with the larger IC50. Options: 1 and 2 In your reply, give the label of the chosen option.
Result string: 1
(1: 8.2 µM, 2: 4.5 µM)

----------
- SYSTEM_TESTED: Xanthine dehydrogenase/oxidase (Bos taurus, UniProt P80457)
- Sequence (P80457 whole entry): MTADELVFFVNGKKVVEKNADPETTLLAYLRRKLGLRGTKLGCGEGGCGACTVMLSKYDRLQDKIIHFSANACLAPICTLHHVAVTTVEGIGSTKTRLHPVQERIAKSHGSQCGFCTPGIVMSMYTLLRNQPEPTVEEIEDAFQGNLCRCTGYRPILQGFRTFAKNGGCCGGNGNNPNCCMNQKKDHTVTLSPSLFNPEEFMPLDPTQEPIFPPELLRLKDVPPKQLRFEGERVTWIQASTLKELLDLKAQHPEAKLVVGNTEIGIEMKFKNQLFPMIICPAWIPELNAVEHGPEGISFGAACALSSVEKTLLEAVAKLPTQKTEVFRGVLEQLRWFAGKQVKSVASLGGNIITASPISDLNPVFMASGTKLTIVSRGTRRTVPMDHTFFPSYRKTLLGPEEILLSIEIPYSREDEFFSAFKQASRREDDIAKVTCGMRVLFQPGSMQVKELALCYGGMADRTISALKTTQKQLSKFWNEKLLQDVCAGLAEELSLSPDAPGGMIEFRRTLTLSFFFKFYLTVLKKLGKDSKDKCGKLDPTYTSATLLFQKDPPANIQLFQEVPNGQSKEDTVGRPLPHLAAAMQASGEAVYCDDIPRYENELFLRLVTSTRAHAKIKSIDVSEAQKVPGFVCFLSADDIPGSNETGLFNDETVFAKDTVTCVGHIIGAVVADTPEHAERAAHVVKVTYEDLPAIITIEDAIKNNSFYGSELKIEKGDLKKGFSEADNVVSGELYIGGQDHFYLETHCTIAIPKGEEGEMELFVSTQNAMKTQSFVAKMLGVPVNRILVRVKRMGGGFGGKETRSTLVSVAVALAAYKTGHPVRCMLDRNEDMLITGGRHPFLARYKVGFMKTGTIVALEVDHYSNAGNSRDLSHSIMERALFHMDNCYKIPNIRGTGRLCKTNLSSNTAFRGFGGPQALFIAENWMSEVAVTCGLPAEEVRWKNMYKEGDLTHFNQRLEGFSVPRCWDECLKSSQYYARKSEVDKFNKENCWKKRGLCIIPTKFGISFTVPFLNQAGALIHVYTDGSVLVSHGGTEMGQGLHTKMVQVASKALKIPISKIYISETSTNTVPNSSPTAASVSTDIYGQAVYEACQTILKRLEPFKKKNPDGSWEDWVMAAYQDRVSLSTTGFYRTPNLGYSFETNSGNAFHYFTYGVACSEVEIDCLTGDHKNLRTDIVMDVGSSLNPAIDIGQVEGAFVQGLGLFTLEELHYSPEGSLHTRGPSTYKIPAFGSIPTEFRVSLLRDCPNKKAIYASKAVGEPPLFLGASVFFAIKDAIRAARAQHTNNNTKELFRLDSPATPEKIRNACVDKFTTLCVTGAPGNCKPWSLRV
- ASSAY_OVERVIEW: XO inhibitory activity
- EXPERIMENTAL_CONTEXT: pH 7.6; 25 °C
pIC50: −log10 of the molar value.
ENDPOINT: pIC50

>>> quantitative_result("Clc1ccccc1Cn1c(-c2ccccc2Cl)nc2ccccc21")
5.36
>>> quantitative_result("Cc1ccccc1Cn1c(-c2ccccc2C)nc2ccccc21")
5.25
>>> quantitative_result("Cc1cccc(Cn2c(-c3cccc(C)c3)nc3ccccc32)c1")
5.37
